Values were extracted from patent US20130288989A1.

Entries annotated with measured ERβ (% of the control) mean ± S.D.
# target.entity: ERβ (Homo sapiens, UniProt Q92731)
# Construct: expressed in transfected cells; host or cells: Hela cells (ER expression free)
# Sequence (Q92731 whole entry): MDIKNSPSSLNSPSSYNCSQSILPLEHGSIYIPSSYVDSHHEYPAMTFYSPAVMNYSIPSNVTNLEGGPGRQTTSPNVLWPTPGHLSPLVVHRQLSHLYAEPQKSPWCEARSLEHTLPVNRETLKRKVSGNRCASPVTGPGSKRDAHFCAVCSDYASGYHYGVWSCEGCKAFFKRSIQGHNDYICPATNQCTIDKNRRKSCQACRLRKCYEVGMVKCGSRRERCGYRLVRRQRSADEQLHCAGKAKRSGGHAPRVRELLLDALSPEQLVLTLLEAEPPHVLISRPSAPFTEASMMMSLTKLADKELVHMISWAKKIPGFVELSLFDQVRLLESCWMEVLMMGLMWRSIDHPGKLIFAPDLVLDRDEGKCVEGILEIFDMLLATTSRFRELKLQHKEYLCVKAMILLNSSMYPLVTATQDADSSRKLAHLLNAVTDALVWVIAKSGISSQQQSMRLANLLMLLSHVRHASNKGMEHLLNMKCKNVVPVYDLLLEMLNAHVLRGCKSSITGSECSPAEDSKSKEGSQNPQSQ
# assay.summary: ERβ luciferase reporter gene transcription activation in transfected Hela cells
# Format: cell-based
# assay.setup: Hela cells, 10^−7 M, 24 h

compound | target.entity | ERβ (% of the control) mean ± S.D.
Cc1cc(O)c2c(c1)C(=O)c1cccc(O)c1C2=O | ERβ (Homo sapiens, UniProt Q92731) | 83.12 ± 4.78 % of the control
O=C(O[C@@H]1Cc2c(O)cc(O)cc2O[C@@H]1c1ccc(O)c(O)c1)c1cc(O)c(O)c(O)c1 [(−)Epicatechin-3-O-gallate, (−)epicatechin-3-O-gallate] | ERβ (Homo sapiens, UniProt Q92731) | 159.55 ± 28.00 % of the control
O=C(CCc1ccc(O)cc1)c1c(O)cc(O)cc1O[C@@H]1O[C@H](CO)[C@@H](O)[C@H](O)[C@H]1O | ERβ (Homo sapiens, UniProt Q92731) | 116.14 ± 8.86 % of the control
O=C1C[C@@H](c2ccc(O[C@@H]3O[C@H](CO)[C@@H](O)[C@H](O)[C@H]3O)cc2)Oc2cc(O)cc(O)c21 [Naringenin-4′-O-glucoside, naringenin-4′-O-glucoside] | ERβ (Homo sapiens, UniProt Q92731) | 200.66 ± 5.22 % of the control
Cc1cc(O)c2c(c1)C(=O)c1cc(O)cc(O)c1C2=O | ERβ (Homo sapiens, UniProt Q92731) | 106.60 ± 10.76 % of the control

----------
# target.entity: ERβ (Homo sapiens)
# Construct: expressed in transfected cells; host or cells: Hela cells (ER expression free)
# assay.summary: ERβ luciferase reporter gene transcription activation in transfected Hela cells
# Format: cell-based
# assay.setup: luciferase reporter gene
measurement.label: concentration at which the transcriptional activity of ERβ is agonized

compound | experimental.value
Cc1cc(O)c2c(c1)C(=O)c1cc(O)cc(O)c1C2=O | 10^−6 M
O=C(O[C@@H]1Cc2c(O)cc(O)cc2O[C@@H]1c1ccc(O)c(O)c1)c1cc(O)c(O)c(O)c1 [(−)Epicatechin-3-O-gallate, (−)epicatechin-3-O-gallate] | 10^−8-10^−5 M
O=C1C[C@@H](c2ccc(O[C@@H]3O[C@H](CO)[C@@H](O)[C@H](O)[C@H]3O)cc2)Oc2cc(O)cc(O)c21 [Naringenin-4′-O-glucoside, naringenin-4′-O-glucoside] | 10^−9-10^−5 M
O=C(CCc1ccc(O)cc1)c1c(O)cc(O)cc1O[C@@H]1O[C@H](CO)[C@@H](O)[C@H](O)[C@H]1O | 10^−6-10^−5 M

----------
Listing of entries alongside the reported ERα (% of the control) mean ± S.D..
# target.entity: ERα (Homo sapiens, UniProt P03372)
# Construct: expressed in transfected cells; host or cells: Hela cells (ER expression free)
# Sequence (P03372 whole entry): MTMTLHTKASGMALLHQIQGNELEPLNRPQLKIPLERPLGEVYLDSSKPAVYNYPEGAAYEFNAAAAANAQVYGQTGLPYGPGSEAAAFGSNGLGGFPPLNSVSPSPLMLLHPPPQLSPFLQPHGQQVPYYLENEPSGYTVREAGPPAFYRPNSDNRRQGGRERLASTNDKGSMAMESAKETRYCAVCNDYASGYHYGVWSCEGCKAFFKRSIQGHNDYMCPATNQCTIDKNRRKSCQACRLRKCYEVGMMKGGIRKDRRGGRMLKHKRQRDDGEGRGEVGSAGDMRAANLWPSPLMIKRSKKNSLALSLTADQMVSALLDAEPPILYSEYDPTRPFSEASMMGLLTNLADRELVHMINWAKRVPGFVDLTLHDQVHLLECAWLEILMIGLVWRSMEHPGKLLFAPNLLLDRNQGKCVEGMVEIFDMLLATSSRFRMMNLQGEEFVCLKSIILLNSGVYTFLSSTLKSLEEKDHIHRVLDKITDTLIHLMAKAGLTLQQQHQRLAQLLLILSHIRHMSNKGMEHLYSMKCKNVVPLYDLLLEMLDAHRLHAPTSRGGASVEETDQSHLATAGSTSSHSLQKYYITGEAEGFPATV
# assay.summary: ERα luciferase reporter gene transcription activation in transfected Hela cells
# Format: cell-based
# assay.setup: Hela cells, 10^−9 M, 24 h

molecule | ERα (% of the control) mean ± S.D.
Cc1cc(O)c2c(c1)C(=O)c1cc(O)cc(O)c1C2=O | 101.27 ± 15.90 % of the control
O=C1C[C@@H](c2ccc(O[C@@H]3O[C@H](CO)[C@@H](O)[C@H](O)[C@H]3O)cc2)Oc2cc(O)cc(O)c21 [Naringenin-4′-O-glucoside, naringenin-4′-O-glucoside] | 110.04 ± 5.59 % of the control
Cc1cc(O)c2c(c1)C(=O)c1cccc(O)c1C2=O | 84.53 ± 14.21 % of the control
O=C(O[C@@H]1Cc2c(O)cc(O)cc2O[C@@H]1c1ccc(O)c(O)c1)c1cc(O)c(O)c(O)c1 [(−)Epicatechin-3-O-gallate, (−)epicatechin-3-O-gallate] | 121.95 ± 10.76 % of the control

----------
# target.entity: ERα (Homo sapiens)
# Construct: expressed in transfected cells; host or cells: Hela cells (ER expression free)
# assay.summary: ERα luciferase reporter gene transcription activation in transfected Hela cells
# Format: cell-based
# assay.setup: Hela cells, 10^−8 M, 24 h

compound | ERα (% of the control) mean ± S.D.
Cc1cc(O)c2c(c1)C(=O)c1cccc(O)c1C2=O [Chrysophanol, chrysophanol] | 80.15 ± 13.88 % of the control
O=C1C[C@@H](c2ccc(O[C@@H]3O[C@H](CO)[C@@H](O)[C@H](O)[C@H]3O)cc2)Oc2cc(O)cc(O)c21 [Naringenin-4′-O-glucoside, naringenin-4′-O-glucoside] | 157.62 ± 14.54 % of the control
O=C(CCc1ccc(O)cc1)c1c(O)cc(O)cc1O[C@@H]1O[C@H](CO)[C@@H](O)[C@H](O)[C@H]1O [Phlorizin, phlorizin] | 105.43 ± 13.57 % of the control
Cc1cc(O)c2c(c1)C(=O)c1cc(O)cc(O)c1C2=O [Emodin, emodin] | 108.48 ± 27.45 % of the control
O=C(O[C@@H]1Cc2c(O)cc(O)cc2O[C@@H]1c1ccc(O)c(O)c1)c1cc(O)c(O)c(O)c1 [(−)Epicatechin-3-O-gallate, (−)epicatechin-3-O-gallate] | 170.00 ± 13.87 % of the control

----------
# target.entity: ERβ (Homo sapiens, UniProt Q92731)
# Construct: expressed in transfected cells; host or cells: Hela cells (ER expression free)
# assay.summary: ERβ luciferase reporter gene transcription activation in transfected Hela cells
# Type: cell-based
# assay.setup: Hela cells, 10^−6 M, 24 h

molecule | target.entity | ERβ (% of the control) mean ± S.D.
Cc1cc(O)c2c(c1)C(=O)c1cccc(O)c1C2=O | ERβ (Homo sapiens, UniProt Q92731) | 120.43 ± 12.98 % of the control
O=C(O[C@@H]1Cc2c(O)cc(O)cc2O[C@@H]1c1ccc(O)c(O)c1)c1cc(O)c(O)c(O)c1 [(−)Epicatechin-3-O-gallate, (−)epicatechin-3-O-gallate] | ERβ (Homo sapiens, UniProt Q92731) | 148.13 ± 4.22 % of the control
O=C1C[C@@H](c2ccc(O[C@@H]3O[C@H](CO)[C@@H](O)[C@H](O)[C@H]3O)cc2)Oc2cc(O)cc(O)c21 [Naringenin-4′-O-glucoside, naringenin-4′-O-glucoside] | ERβ (Homo sapiens, UniProt Q92731) | 207.11 ± 15.76 % of the control
O=C(CCc1ccc(O)cc1)c1c(O)cc(O)cc1O[C@@H]1O[C@H](CO)[C@@H](O)[C@H](O)[C@H]1O | ERβ (Homo sapiens, UniProt Q92731) | 133.79 ± 5.45 % of the control
Cc1cc(O)c2c(c1)C(=O)c1cc(O)cc(O)c1C2=O | ERβ (Homo sapiens, UniProt Q92731) | 145.21 ± 8.06 % of the control

----------
# target.entity: ERβ (Homo sapiens)
# Construct: expressed in transfected cells; host or cells: Hela cells (ER expression free)
# assay.summary: ERβ luciferase reporter gene transcription activation in transfected Hela cells
# Type: cell-based
# assay.setup: Hela cells, 10^−9 M, estradiol at 10^−8M

smiles.input | ERβ (% of estradiol)
Cc1cc(O)c2c(c1)C(=O)c1cc(O)cc(O)c1C2=O | 47.31 % of estradiol

----------
Overview of recorded ERβ (% of the control) mean ± S.D. for various molecules
# target.entity: ERβ (Homo sapiens, UniProt Q92731)
# Construct: expressed in transfected cells; host or cells: Hela cells (ER expression free)
# assay.summary: ERβ luciferase reporter gene transcription activation in transfected Hela cells
# Assay type: cell-based
# assay.setup: Hela cells, 10^−9 M, 24 h
# Text: Actually, estrogens show their biological activity by regulating estrogen responding genetic transcription. Formulation of sample solutions of catechin, (−)epicatechin-3-O-gallate, naringenin-4′-O-glucoside, phlorizin, emodin, chrysophanol (separately obtained from Example 1): […]

molecule | ERβ (% of the control) mean ± S.D.
O=C(O[C@@H]1Cc2c(O)cc(O)cc2O[C@@H]1c1ccc(O)c(O)c1)c1cc(O)c(O)c(O)c1 [(−)Epicatechin-3-O-gallate, (−)epicatechin-3-O-gallate] | 97.75 ± 17.66 % of the control
Cc1cc(O)c2c(c1)C(=O)c1cc(O)cc(O)c1C2=O | 104.68 ± 13.96 % of the control
Cc1cc(O)c2c(c1)C(=O)c1cccc(O)c1C2=O | 86.99 ± 23.16 % of the control
O=C1C[C@@H](c2ccc(O[C@@H]3O[C@H](CO)[C@@H](O)[C@H](O)[C@H]3O)cc2)Oc2cc(O)cc(O)c21 [Naringenin-4′-O-glucoside, naringenin-4′-O-glucoside] | 137.90 ± 9.40 % of the control

----------
Measured ERβ/ERα (both % of estradiol at 10^−8M) by item
# Test system: estrogen receptor
# assay.summary: Estrogen receptor activation test: overall estrogen activity and ERβ versus ERα comparison
# Assay type: cell-based
# assay.setup: Hela cells, sample 10^−7 M
measurement.label: ERβ/ERα (both % of estradiol at 10^−8M)

compound | experimental.value
O=C(O[C@@H]1Cc2c(O)cc(O)cc2O[C@@H]1c1ccc(O)c(O)c1)c1cc(O)c(O)c(O)c1 [(−)Epicatechin-3-O-gallate, (−)epicatechin-3-O-gallate] | 0.93
O=C(CCc1ccc(O)cc1)c1c(O)cc(O)cc1O[C@@H]1O[C@H](CO)[C@@H](O)[C@H](O)[C@H]1O | 1.01
Cc1cc(O)c2c(c1)C(=O)c1cccc(O)c1C2=O | 1.03
O=C1C[C@@H](c2ccc(O[C@@H]3O[C@H](CO)[C@@H](O)[C@H](O)[C@H]3O)cc2)Oc2cc(O)cc(O)c21 [Naringenin-4′-O-glucoside, naringenin-4′-O-glucoside] | 1.13
Cc1cc(O)c2c(c1)C(=O)c1cc(O)cc(O)c1C2=O | 1.00
